Attribute: Ki
test: Displacement of [3H]ditolylguanidine from sigma 2 […] receptor in rat liver
The reply should be a number in nM, with the unit left off.

Use these answered entries as a reference point.
Query: Using the record for c1ccc(-n2ncc3c2CCC3CCN2CCCCC2)cc1 (centres undefined) , report its Ki.
Result: 36.2

Query: Using the record for COC1OC2(CCN(Cc3ccccc3)CC2)c2cnn(-c3ccccc3)c21 (centres undefined) , report its Ki.
Result: 1750

Query: Could you share which Ki value was measured for CCCCN1CCC2(CC1)OC(OC)c1c2cnn1-c1ccccc1 (centres undefined) ?
Result: 1050

Consider now this further molecule.
Query: Fill in: Ki of Cc1ccccc1NC(=N)Nc1ccccc1C [DITOLYLGUANIDINE] is ___
Result: 20.2

###

assay: Inhibition of adrenergic alpha 2 receptor
pIC50: −log10 of the molar value.
quantity-kind: pIC50

Query: pIC50 lookup needed for CCCCN1CCC2(CC1)OC(OC)c1c2cnn1-c1ccccc1 (configuration not stated) , thanks.
Result: < 6.00

Kindly review the next compound as well.
Query: Quick check: pIC50 of COC1OC2(CCN(Cc3ccccc3)CC2)c2cnn(-c3ccccc3)c21 (configuration not stated) ?
Result: < 6.00

###

Recorded below: IC50, system Voltage-gated inwardly rectifying potassium channel KCNH2 (Homo sapiens).
Quick note: give the figure in nM, leave out the unit.

Query: # value lookup — system Voltage-gated inwardly rectifying potassium channel KCNH2 (Homo sapiens), readout IC50, item CCCCN1CCC2(CC1)OC(OC)c1c2cnn1-c1ccccc1 (configuration not stated)
Result: 0.65

Query: Query for Voltage-gated inwardly rectifying potassium channel KCNH2 (Homo sapiens): what IC50 does the record show for COC1OC2(CCN(Cc3ccccc3)CC2)c2cnn(-c3ccccc3)c21 (configuration not stated) ?
Result: 0.41

###

test: Inhibition of adrenergic alpha 1 receptor
quantity-kind: pIC50
Units for pIC50: none; it is -log10 of a concentration expressed in mol/L.

Query: What pIC50 value was documented for this compound, CCCCN1CCC2(CC1)OC(OC)c1c2cnn1-c1ccccc1 (configuration not stated) ?
Result: 5.91

###

biological target: 5-hydroxytryptamine receptor 1A (Homo sapiens, UniProt P08908)
Sequence (P08908 whole entry): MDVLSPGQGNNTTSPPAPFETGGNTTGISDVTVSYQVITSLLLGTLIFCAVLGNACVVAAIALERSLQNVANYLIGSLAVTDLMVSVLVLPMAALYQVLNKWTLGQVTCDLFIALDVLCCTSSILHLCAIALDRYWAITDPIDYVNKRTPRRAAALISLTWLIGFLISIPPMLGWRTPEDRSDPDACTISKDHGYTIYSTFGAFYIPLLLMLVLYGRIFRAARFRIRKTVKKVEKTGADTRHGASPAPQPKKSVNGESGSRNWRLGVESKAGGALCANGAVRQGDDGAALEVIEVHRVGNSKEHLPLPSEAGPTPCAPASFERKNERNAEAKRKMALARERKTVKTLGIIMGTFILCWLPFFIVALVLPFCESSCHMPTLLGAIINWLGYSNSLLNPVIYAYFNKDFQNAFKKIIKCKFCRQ
quantity-kind: IC50

Query: Param readout = IC50; param system = 5-hydroxytryptamine receptor 1A (Homo sapiens, UniProt P08908); param query = COC1OC2(CCN(Cc3ccccc3)CC2)c2cnn(-c3ccccc3)c21 (configuration not stated) ; response: value
Result: > 10 µM

Please examine the following record next.
Query: Hello, I am looking for reported IC50 with 5-hydroxytryptamine receptor 1A (Homo sapiens, UniProt P08908) for CCCCN1CCC2(CC1)OC(OC)c1c2cnn1-c1ccccc1 (configuration not stated) . Could you help?
Result: > 10 µM
